These measurements were taken from patent US12655116B2.

Catalogue of compounds with associated pest or weed control at 20 g/ha
Test system: PHBPU
Test: Post-emergence herbicidal action against PHBPU
Format: in vivo, Pharbitis purpurea
Details: Ipomoea purpurea, 504 h, dosage 20 g/ha
Experimental: Seeds of monocotyledonous and dicotyledonous weed and crop plants are laid out in sandy loam soil in wood-fiber pots, covered with soil and cultivated in a greenhouse under good growth conditions. 2 to 3 weeks after sowing, the test plants are treated at the one-leaf stage. […]
Observation type: pest or weed control at 20 g/ha (%)

Chemical smiles: CCn1nnnc1NC(=O)c1ccc(C(F)(F)F)c(C(=O)NC2CC2)c1OC
Observation type: pest or weed control at 20 g/ha
Measured number: 90
//
Chemical smiles: CCn1nnnc1NC(=O)c1ccc(C(F)(F)F)c(C(=O)NC2CC2)c1Cl
Observation type: pest or weed control at 20 g/ha
Measured number: 80
//
Chemical smiles: CCNC(=O)c1c(C(F)F)ccc(C(=O)Nc2nnnn2CC)c1CC
Observation type: pest or weed control at 20 g/ha
Measured number: 90
//
Chemical smiles: CNC(=O)c1c(C(F)(F)F)ccc(C(=O)Nc2nnc(C)o2)c1Cl
Observation type: pest or weed control at 20 g/ha
Measured number: 80
//
Chemical smiles: Cn1nnnc1NC(=O)c1ccc(Br)c(C(=O)NCC(F)(F)F)c1Cl
Observation type: pest or weed control at 20 g/ha
Measured number: 90
//
Chemical smiles: CCNC(=O)c1c(C(F)(F)F)ccc(C(=O)Nc2nnnn2C)c1SC
Observation type: pest or weed control at 20 g/ha
Measured number: 90
//
Chemical smiles: CCn1nnnc1NC(=O)c1ccc(C(F)F)c(C(=O)NC2CC2)c1Cl
Observation type: pest or weed control at 20 g/ha
Measured number: 90
//
Chemical smiles: Cc1nnc(NC(=O)c2ccc(C(F)(F)F)c(C(=O)NC(C)C)c2C)o1
Observation type: pest or weed control at 20 g/ha
Measured number: 90
//
Chemical smiles: CCc1c(C(=O)Nc2nnnn2C)ccc(C(F)F)c1C(=O)NC1CC1
Observation type: pest or weed control at 20 g/ha
Measured number: 90
//
Chemical smiles: CC(C)NC(=O)c1c(C(F)F)ccc(C(=O)Nc2nnnn2C)c1Cl
Observation type: pest or weed control at 20 g/ha
Measured number: 90
//
Chemical smiles: CNC(=O)c1c(C(F)(F)F)ccc(C(=O)Nc2nnnn2C)c1OC
Observation type: pest or weed control at 20 g/ha
Measured number: 80
//
Chemical smiles: CNC(=O)c1c(C(F)(F)C(F)(F)F)ccc(C(=O)Nc2nnnn2C)c1Cl
Observation type: pest or weed control at 20 g/ha
Measured number: 90
//
Chemical smiles: Cn1nnnc1NC(=O)c1ccc(C(F)F)c(C(=O)NCC(F)(F)F)c1Br
Observation type: pest or weed control at 20 g/ha
Measured number: 80
//
Chemical smiles: CCNC(=O)c1c(C(F)F)ccc(C(=O)Nc2nnnn2C)c1CC
Observation type: pest or weed control at 20 g/ha
Measured number: 90
//
Chemical smiles: CCNC(=O)c1c(Br)ccc(C(=O)Nc2nnnn2C)c1Cl
Observation type: pest or weed control at 20 g/ha
Measured number: 80
//
Chemical smiles: COc1ccc(C(=O)Nc2nnnn2C)c(Cl)c1C(=O)NC1CC1
Observation type: pest or weed control at 20 g/ha
Measured number: 80
//
Chemical smiles: Cn1nnnc1NC(=O)c1ccc(C(F)(F)F)c(C(=O)NC2CC2)c1Cl
Observation type: pest or weed control at 20 g/ha
Measured number: 90
//
Chemical smiles: CCNC(=O)c1c(C(F)(F)F)ccc(C(=O)Nc2nnnn2C)c1Br
Observation type: pest or weed control at 20 g/ha
Measured number: 90
